biological target: T1, RPtag(small) Nd2, Cd4 (Thermoanaerobacter tengcongensis); test: fluorescence anisotropy; 2 nM rhodamine Nd2Cd4, unlabeled RPtag large variant titrated; bar of Ka = 1/Kd, right axis
T1 peptide: RhodamineB-KIPNFIPAELKLITK
No end group written: not given here. *: point of attachment. RhodamineB = CCN(CC)c1ccc2c(-c3ccccc3C(=O)*)c3ccc(=[N+](CC)CC)cc-3oc2c1
quantity-measured: binding result

INPUT: Fill blank: measured binding result of the binder k129y (designed binder, also called RPtag(large) K129Y) single chain: MGSSCHHHHHHSQDPNSSSMKEGKTIGLVISTLNNPFFVTLKNGAEEKAKELGYKIIVEDSQNDSSKELSNVEDLIQQKVDVLLINPVDSDAVVTAIKEANSKNIPVITIDRSANGGDVVSHIASDNVYGGEMAAEFIAKALKGKGNVVELEGIPGASAARDRGKGFDEAIAKYPDIKIVAKQAADFDRSKGLSVMENILQAQPKIDAVFAQNDEMALGAIKAIEAANRQGIIVVGFDGTEDALKAIKEGKMAATIAQQPALMGSLGVEMADKYLK is ____.
OUTPUT: binds

meta.source: patent US20200102347A1
